Listed molecules paired with reported Ki
molecular target: glucocorticoid receptors (GR) in SW1353/MMTV-5 cells (Homo sapiens, UniProt P04150); construct: contains endogenous glucocorticoid receptors; endogenous in cells; experiment: GR functional assay using SW1353/MMTV-5 cells (MMTV-luciferase reporter)
Sequence (P04150 whole entry): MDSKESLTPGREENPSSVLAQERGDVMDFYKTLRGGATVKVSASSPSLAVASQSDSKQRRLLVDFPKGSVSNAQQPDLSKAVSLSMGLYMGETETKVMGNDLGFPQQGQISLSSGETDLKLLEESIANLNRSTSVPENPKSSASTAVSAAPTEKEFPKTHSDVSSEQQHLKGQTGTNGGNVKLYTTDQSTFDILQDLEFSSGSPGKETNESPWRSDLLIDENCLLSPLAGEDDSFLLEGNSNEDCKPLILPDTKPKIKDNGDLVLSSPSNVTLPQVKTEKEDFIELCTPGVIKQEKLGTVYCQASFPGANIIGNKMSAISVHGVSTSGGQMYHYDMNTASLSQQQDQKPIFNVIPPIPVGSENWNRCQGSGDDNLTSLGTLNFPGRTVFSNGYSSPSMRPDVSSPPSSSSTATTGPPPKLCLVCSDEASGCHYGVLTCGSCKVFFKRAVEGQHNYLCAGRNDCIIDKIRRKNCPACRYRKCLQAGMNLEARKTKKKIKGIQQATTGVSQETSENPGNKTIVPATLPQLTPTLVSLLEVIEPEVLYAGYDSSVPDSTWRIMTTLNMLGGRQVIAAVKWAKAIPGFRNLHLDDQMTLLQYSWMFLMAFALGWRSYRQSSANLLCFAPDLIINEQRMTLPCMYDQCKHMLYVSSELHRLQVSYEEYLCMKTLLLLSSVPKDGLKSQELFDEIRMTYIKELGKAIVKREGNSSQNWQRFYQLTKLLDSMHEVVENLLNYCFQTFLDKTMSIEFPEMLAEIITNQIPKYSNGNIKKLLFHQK
recorded.metric: Ki

- smiles: "CCOC[C@]12Cc3cnn(-c4ccc(F)cc4)c3C=C1CCN(S(=O)(=O)c1ccc(N3CCOCC3)nc1)C2"
  target.of.assay: "glucocorticoid receptors (GR) in SW1353/MMTV-5 cells (Homo sapiens, UniProt P04150)"
  result: "< 10 nM"
- smiles: "CCOC[C@]12Cc3cnn(-c4ccc(F)cc4)c3C=C1CCN(S(=O)(=O)c1cccnc1)C2"
  target.of.assay: "glucocorticoid receptors (GR) in SW1353/MMTV-5 cells (Homo sapiens, UniProt P04150)"
  result: "10 to 50 nM"
- smiles: "O=S(=O)(c1ccc(N2CC(F)C2)nc1)N1CCC2=Cc3c(cnn3-c3ccc(F)cc3)C[C@]2(COCC2CC2)C1"
  target.of.assay: "glucocorticoid receptors (GR) in SW1353/MMTV-5 cells (Homo sapiens, UniProt P04150)"
  result: "< 10 nM"
- smiles: "O=C(OCC1CC1)[C@]12Cc3cnn(-c4ccc(F)cc4)c3C=C1CCN(S(=O)(=O)c1ccc(C(F)(F)F)nc1)C2"
  target.of.assay: "glucocorticoid receptors (GR) in SW1353/MMTV-5 cells (Homo sapiens, UniProt P04150)"
  result: "< 10 nM"
- smiles: "COC[C@]12Cc3cnn(-c4ccc(F)cc4)c3C=C1CCN(S(=O)(=O)c1ccc(N3CCC3)nc1)C2"
  target.of.assay: "glucocorticoid receptors (GR) in SW1353/MMTV-5 cells (Homo sapiens, UniProt P04150)"
  result: "10 to 50 nM"
- smiles: "COC[C@]12Cc3cnn(-c4ccc(F)cc4)c3C=C1CCN(S(=O)(=O)c1ccc(N3CCCC3)nc1)C2"
  target.of.assay: "glucocorticoid receptors (GR) in SW1353/MMTV-5 cells (Homo sapiens, UniProt P04150)"
  result: "10 to 50 nM"
- smiles: "COC[C@]12Cc3cnn(-c4ccc(F)cc4)c3C=C1CCN(S(=O)(=O)c1ccc(N3CC[C@H](O)C3)nc1)C2"
  target.of.assay: "glucocorticoid receptors (GR) in SW1353/MMTV-5 cells (Homo sapiens, UniProt P04150)"
  result: "> 50 nM"
